The values you see were collected from patent US12421225B2.

# pIC50 listing for each entry below
- system-tested: UniProt:Q15858
- test: Human Nav1.7 inhibitory activity evaluation (automated patch clamp QPatch16X, HEK293A cells stably expressing human Nav1.7 and human Navβ1)
- Type: cell-based
- measurement-parameters: human Nav1.7, automated patch clamp
pIC50: −log10 of the molar value.

Here are 2 molecules together with their reported answers.
## Input Entry under review: O=C(N[C@H]1COc2ccc(CCOC(F)F)cc2C1)c1cc2n(n1)CCC(COC(F)F)O2 (single isomer, unassigned) [142 (isomer A)] . Reported pIC50?
## Output > 6.00

## Input Entry under review: O=C(N[C@H]1COc2ccccc2C1)c1cc2n(n1)CCN(S(=O)(=O)c1cccc(C(F)(F)F)c1)C2 [Example 277] . Reported pIC50?
## Output > 5.00

Others:
## Input Entry under review: O=C(N[C@H]1COc2ccc(CC(F)F)cc2C1)c1cc2n(n1)CCC(COCC(F)(F)F)CO2 (single isomer, unassigned) [601 (isomer B)] . Reported pIC50?
## Output > 5.00

----------
# IC50 listing for each entry below
- system-tested: human Nav1.7 (Homo sapiens (Human), UniProt Q15858)
- Sequence (Q15858 whole entry): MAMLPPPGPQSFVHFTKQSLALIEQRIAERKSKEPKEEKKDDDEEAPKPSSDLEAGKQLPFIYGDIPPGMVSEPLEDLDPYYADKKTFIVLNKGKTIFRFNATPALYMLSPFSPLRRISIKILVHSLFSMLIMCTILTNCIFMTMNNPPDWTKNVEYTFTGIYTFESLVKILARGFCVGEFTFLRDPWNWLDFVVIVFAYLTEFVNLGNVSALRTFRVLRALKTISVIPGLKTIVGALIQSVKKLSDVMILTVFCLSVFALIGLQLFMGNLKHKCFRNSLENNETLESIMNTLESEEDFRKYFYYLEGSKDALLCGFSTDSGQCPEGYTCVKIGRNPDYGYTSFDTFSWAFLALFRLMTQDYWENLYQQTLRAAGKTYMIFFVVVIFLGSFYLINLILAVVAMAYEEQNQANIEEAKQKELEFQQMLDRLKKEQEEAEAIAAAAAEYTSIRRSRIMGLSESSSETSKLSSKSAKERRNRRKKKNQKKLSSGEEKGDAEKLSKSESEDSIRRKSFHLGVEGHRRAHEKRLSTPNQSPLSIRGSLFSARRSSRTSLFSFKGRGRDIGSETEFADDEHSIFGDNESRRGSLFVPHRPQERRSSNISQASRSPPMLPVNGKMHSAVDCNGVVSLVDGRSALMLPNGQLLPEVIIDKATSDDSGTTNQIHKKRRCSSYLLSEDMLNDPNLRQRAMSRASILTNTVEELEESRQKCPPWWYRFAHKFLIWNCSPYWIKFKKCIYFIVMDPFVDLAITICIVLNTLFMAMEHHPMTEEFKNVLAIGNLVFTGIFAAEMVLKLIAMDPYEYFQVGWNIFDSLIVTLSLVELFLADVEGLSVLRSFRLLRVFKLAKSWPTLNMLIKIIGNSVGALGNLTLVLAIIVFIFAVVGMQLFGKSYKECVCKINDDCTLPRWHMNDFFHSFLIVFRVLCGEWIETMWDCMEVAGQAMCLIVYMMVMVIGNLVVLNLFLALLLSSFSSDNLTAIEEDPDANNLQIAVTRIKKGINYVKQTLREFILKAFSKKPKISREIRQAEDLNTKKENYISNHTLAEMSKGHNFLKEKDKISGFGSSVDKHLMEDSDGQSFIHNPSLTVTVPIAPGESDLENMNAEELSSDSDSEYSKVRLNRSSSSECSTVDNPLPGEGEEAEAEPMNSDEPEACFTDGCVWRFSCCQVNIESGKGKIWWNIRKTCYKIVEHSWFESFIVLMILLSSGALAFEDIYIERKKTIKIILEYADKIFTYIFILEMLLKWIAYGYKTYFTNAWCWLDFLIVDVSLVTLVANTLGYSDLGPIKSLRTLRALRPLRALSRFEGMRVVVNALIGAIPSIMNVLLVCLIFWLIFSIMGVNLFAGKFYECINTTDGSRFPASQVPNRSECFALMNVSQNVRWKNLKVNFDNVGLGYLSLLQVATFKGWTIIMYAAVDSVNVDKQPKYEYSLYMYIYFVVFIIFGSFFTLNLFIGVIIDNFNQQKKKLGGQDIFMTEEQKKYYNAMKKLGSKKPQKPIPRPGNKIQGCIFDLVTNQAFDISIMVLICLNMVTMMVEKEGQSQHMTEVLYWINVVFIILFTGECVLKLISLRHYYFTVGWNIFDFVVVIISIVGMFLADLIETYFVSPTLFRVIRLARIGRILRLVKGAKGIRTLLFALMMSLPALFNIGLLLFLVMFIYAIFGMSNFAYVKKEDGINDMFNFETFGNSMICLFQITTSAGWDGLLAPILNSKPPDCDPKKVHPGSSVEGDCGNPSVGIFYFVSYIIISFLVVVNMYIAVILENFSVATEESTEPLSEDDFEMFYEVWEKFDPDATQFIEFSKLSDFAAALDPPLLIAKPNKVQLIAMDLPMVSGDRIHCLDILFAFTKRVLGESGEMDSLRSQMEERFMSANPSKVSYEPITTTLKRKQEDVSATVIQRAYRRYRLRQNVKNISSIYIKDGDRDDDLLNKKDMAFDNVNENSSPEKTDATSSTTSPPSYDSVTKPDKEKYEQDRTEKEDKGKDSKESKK
- Sequence (Q07699 19-218 partner): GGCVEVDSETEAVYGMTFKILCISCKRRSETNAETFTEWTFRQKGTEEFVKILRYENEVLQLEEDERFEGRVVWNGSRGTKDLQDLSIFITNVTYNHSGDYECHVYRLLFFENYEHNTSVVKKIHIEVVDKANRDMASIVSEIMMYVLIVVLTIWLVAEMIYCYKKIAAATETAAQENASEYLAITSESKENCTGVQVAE
- test: Human Nav1.7 inhibitory activity evaluation (automated patch clamp QPatch16X, HEK293A cells stably expressing human Nav1.7 and human Navβ1)
- Assay type: cell-based
- measurement-parameters: human Nav1.7, automated patch clamp

## Input Entry under review: N#Cc1ccc2c(c1)C[C@@H](NC(=O)c1cc3n(n1)CC(CCOC1CCC1)O3)CO2 (some centres unmarked) . Reported IC50?
## Output < 1000 nM

## Input Entry under review: O=C(N[C@H]1COc2ccc(C(F)(F)F)cc2C1)c1nn2c(c1-c1ccn[nH]1)OCC2 . Reported IC50?
## Output < 10000 nM

## Input Entry under review: O=C(N[C@H]1COc2ccc(-c3ccccn3)cc2C1)c1cc2n(n1)CC(CCOCC(F)(F)F)O2 (single isomer, unassigned) [207 (isomer B)] . Reported IC50?
## Output < 1000 nM

## Input Entry under review: O=C(c1cn2c(n1)CCC(C(F)(F)F)C2)N(Cc1ccccc1)C1COc2ccc(Br)cc2C1 (centres unmarked) . Reported IC50?
## Output < 1000 nM

## Input Entry under review: O=C(N[C@H]1COc2ccc(COCC(F)(F)F)cc2C1)c1cc2n(n1)CCN(CCC(F)(F)F)C2 . Reported IC50?
## Output < 1000 nM

## Input Entry under review: N#Cc1ccc2c(c1)C[C@@H](NC(=O)c1cc3n(n1)CC(CSCC(F)(F)F)O3)CO2 (single isomer, unassigned) [200 (isomer B)] . Reported IC50?
## Output < 1000 nM

## Input Entry under review: O=C(N[C@H]1COc2ccc(Cl)cc2C1)c1cc2n(n1)CCC(CNCC(F)(F)F)O2 (single isomer, unassigned) [152 (isomer A)] . Reported IC50?
## Output < 1000 nM

## Input Entry under review: O=C(N[C@H]1COc2ccc(COCC(F)(F)F)cc2C1)c1cc2n(n1)CCC(C(F)(F)F)CO2 (some centres unmarked) . Reported IC50?
## Output < 1000 nM

Others:
## Input Entry under review: O=C(N[C@H]1COc2ccc(Cl)cc2C1)c1cc2n(n1)CCC(C(F)F)O2 (single isomer, unassigned) [158 (isomer B)] . Reported IC50?
## Output < 10000 nM

## Input Entry under review: N#Cc1ccc2c(c1)C[C@@H](NC(=O)c1cc3n(n1)CCC(CCOC(F)F)O3)CO2 (single isomer, unassigned) [146 (isomer B)] . Reported IC50?
## Output < 1000 nM

## Input Entry under review: O=C(N[C@H]1COc2ccc(-c3ccncc3)cc2C1)c1cc2n(n1)CCC(C(F)(F)F)O2 (some centres unmarked) . Reported IC50?
## Output < 10000 nM

## Input Entry under review: N#Cc1ccc2c(c1)C[C@@H](NC(=O)c1cc3n(n1)CCC(CSC(F)(F)F)O3)CO2 (some centres unmarked) [Example 155] . Reported IC50?
## Output < 10000 nM

## Input Entry under review: N#Cc1ccc2c(c1)C[C@@H](NC(=O)c1cc3n(n1)CCC(OC(F)(F)F)CO3)CO2 (some centres unmarked) [Example 252] . Reported IC50?
## Output < 1000 nM

## Input Entry under review: N#Cc1ccc2c(c1)C[C@@H](NC(=O)c1cc3n(n1)CCC(COc1ccccn1)O3)CO2 (some centres unmarked) . Reported IC50?
## Output < 1000 nM

----------
- system-tested: human Nav1.7 (Homo sapiens (Human))
- test: Human Nav1.7 inhibitory activity evaluation (automated patch clamp QPatch16X, HEK293A cells stably expressing human Nav1.7 and human Navβ1)
- Assay type: cell-based
- measurement-parameters: HEK293A cells stably expressing human Nav1.7 and human Navβ1, automated patch clamp QPatch16X
quantity-name: IC50

Here are 5 compounds together with their reported answers.
## Input Entry under review: O=C(N[C@H]1COc2ccc(Cl)cc2C1)c1cc2n(n1)CCC(CN1CCOCC1)O2 (stereo partly shown) [Example 122] . Reported IC50?
## Output < 10 µM

## Input Entry under review: O=C(N[C@H]1COc2ccc(COCC(F)(F)F)cc2C1)c1nc2n(c1-c1ccn[nH]1)CCCC2 [Example 20] . Reported IC50?
## Output < 1 µM

## Input Entry under review: CCC1CCc2nc(C(=O)N[C@H]3COc4ccccc4C3)cn2C1 (stereo partly shown) [Example 23] . Reported IC50?
## Output < 10 µM

## Input Entry under review: CC1(COCC2CCn3nc(C(=O)N[C@H]4COc5ccc(C#N)cc5C4)cc3O2)CC1 (single isomer, unassigned) [113 (isomer A)] . Reported IC50?
## Output < 1 µM

## Input Entry under review: O=C(c1cn2c(n1)CNC(c1ccccc1)C2)N1CCC(c2cccc(C(F)(F)F)c2)C1 (stereo not shown) [Example 60] . Reported IC50?
## Output < 10 µM

Others:
## Input Entry under review: N#Cc1ccc2c(c1)C[C@@H](NC(=O)c1cc3n(n1)CCC(COCC1CC1)O3)CO2 (single isomer, unassigned) [103 (isomer A)] . Reported IC50?
## Output < 1 µM

## Input Entry under review: COc1cccc(-c2c(C(=O)N[C@H]3COc4ccccc4C3)nn3c2CCCC3)n1 [Example 69] . Reported IC50?
## Output < 10 µM

## Input Entry under review: O=C(N[C@H]1COc2ccc(Br)cc2C1)c1cc2n(n1)CCC(c1ccccc1F)O2 (stereo partly shown) [Example 71] . Reported IC50?
## Output < 1 µM

## Input Entry under review: O=C(NCCc1cccc(C(F)(F)F)c1)c1nc2n(c1-c1ccccc1)CCCC2 [Example 22] . Reported IC50?
## Output < 10 µM

## Input Entry under review: O=C(c1cn2c(n1)CCC(c1cccnc1C(F)(F)F)C2)N1CCC1Cc1ccccc1 (stereo not shown) [Example 30] . Reported IC50?
## Output < 10 µM

----------
- system-tested: human Nav1.7 (Homo sapiens (Human), UniProt Q15858)
- test: Human Nav1.7 inhibitory activity evaluation (automated patch clamp QPatch16X, HEK293A cells stably expressing human Nav1.7 and human Navβ1)
- Format: cell-based
- measurement-parameters: human Nav1.7, automated patch clamp
# IC50 listing for each entry below

## Input Under human Nav1.7 (Homo sapiens (Human), UniProt Q15858): IC50 value of O=C(N[C@H]1COc2ccc(COCC(F)(F)F)cc2C1)c1cc2n(n1)CC(COC(F)(F)F)O2 (single isomer, unassigned) [196 (isomer A)] ?
## Output < 1 µM

## Input Under human Nav1.7 (Homo sapiens (Human), UniProt Q15858): IC50 value of O=C(N[C@H]1COc2ccc(C(F)(F)F)cc2C1O)c1cc2n(n1)CCC(C(F)F)O2 (single isomer, unassigned) [534 (isomer B)] ?
## Output < 10 µM

## Input Under human Nav1.7 (Homo sapiens (Human), UniProt Q15858): IC50 value of O=C(N[C@H]1COc2ccc(Cl)cc2C1)c1cc2n(n1)CCC(c1cccnc1)O2 (stereo partly drawn) [Example 358] ?
## Output < 10 µM

## Input Under human Nav1.7 (Homo sapiens (Human), UniProt Q15858): IC50 value of N#Cc1ccc(N2CCn3nc(C(=O)N[C@H]4COc5ccc(Cl)cc5C4)cc3C2)nc1 [Example 280] ?
## Output < 10 µM

## Input Under human Nav1.7 (Homo sapiens (Human), UniProt Q15858): IC50 value of O=C(N[C@H]1COc2ccc(COCC(F)(F)F)cc2C1)c1cc2n(n1)CCC(OCC(F)(F)F)CO2 (stereo partly drawn) [Example 482] ?
## Output < 1 µM

Others:
## Input Under human Nav1.7 (Homo sapiens (Human), UniProt Q15858): IC50 value of O=C(N[C@H]1COc2ccc(C(F)(F)F)cc2C1F)c1cc2n(n1)CCN(CC1CCOC1)C2 (stereo partly drawn) [Example 673] ?
## Output < 1 µM

## Input Under human Nav1.7 (Homo sapiens (Human), UniProt Q15858): IC50 value of O=C(NC1COc2ccc(F)c(F)c2C1)c1cc2n(n1)CC(CCCOCC(F)(F)F)O2 (stereo not drawn) [Example 628] ?
## Output < 1 µM
